system: CP315; assay: qHTS profiling for inhibitors of Plasmodium falciparum proliferation (AID 504749); note: nearly all actives have a fitted effect of over 60% in size; conditions: P. falciparum in erythrocytes, SYBR Green DNA, 72 h; series mostly up to 28.7 µM
Records with an inconclusive call do not appear. Calls of active or inactive are those of the source. Calls come from the whole dose curve; as a rule, active = well fitted inhibition curve with a large enough effect; inconclusive = small, poorly fitted or top-dose-only effect; inactive = flat fitted curve, though single readings scatter.
readout.label: outcome

molecule	result
CC(C)C[C@H](NC(=O)[C@@H](Cc1c[nH]c2ccccc12)NC(=O)[C@@H](Cc1ccc(O)cc1)NC(=O)[C@@H](CO)NC(=O)[C@@H](Cc1c[nH]c2ccccc12)NC(=O)C(Cc1cnc[nH]1)NC(=O)C1CCC(=O)N1)C(=O)N[C@@H](CCCN=C(N)N)C(=O)N1CCC[C@@H]1C(=O)NCC(N)=O (some centres not stated)	inactive
CNCC(=O)NC(CCCN=C(N)N)C(=O)NC(C(=O)NC(Cc1ccc(O)cc1)C(=O)NC(C(=O)NC(Cc1cnc[nH]1)C(=O)N1CCCC1C(=O)NC(C)C(=O)O)C(C)C)C(C)C (configuration not stated)	inactive

###

assay: qHTS assay for small molecule agonists of the antioxidant response element (ARE) signaling pathway (AID 651741); settings: HepG2 ARE-bla reporter, beta-lactamase FRET ratio, 16 h; series mostly up to 96 µM
Records with an inconclusive call do not appear. Calls of active or inactive are those of the source. Calls follow the shape of the dose curve; as a rule, active = well fitted activation curve with a large enough effect in the signal ratio; inconclusive = small, poorly fitted or top-dose-only effect, or effect the other way, or a change in a side signal; inactive = flat fitted curve, though single readings scatter; the % refers to the signal ratio.
Result category, one only: active, inactive

Solved cases (2 shown):
In [3]: df
Out[3]:
                                   molecule  group_label
0  BrC1CCC(Br)C(Br)CCC(Br)C(Br)CCC1Br (stereo not drawn)     inactive
1                           CCCCCCCCCCCCCCO     inactive

For `CCCCN(CCCC)CCCCCCN(CCCC)CCCC` , what call appears in the results of this test?
inactive

For `C1CCC2(CCCCO2)OC1` , what call appears in the results of this test?
inactive

For `CCCCCCCCCC(C)=O` , what call appears in the results of this test?
inactive

###

molecular target: Cytochrome P450 2C19 (Homo sapiens); experiment: qHTS Assay for Inhibitors and Substrates of Cytochrome P450 2C19 (AID 899); conditions: recombinant CYP2C19, luciferin-H EGE luminescence; series mostly up to 11.4 µM; note: nearly all actives have a fitted effect of over 60% in size
Results filed as inconclusive are left out. Active and inactive are the calls of the source. The call rests on the fitted dose curve; in most records, active means well fitted inhibition curve with a large enough effect; inconclusive means small, poorly fitted or top-dose-only effect; inactive means no such curve, though single readings can be large or run the other way.
Result category, one only: active, inactive

In [3]: df
Out[3]:
                                   molecule  group_label
0  Cc1ccc(C#CC2C=CC(Oc3ccc4c(c3)OCO4)C(CO)O2)c(C)c1 (stereo not given)     inactive
1  CCCCC#CC1C=CC(Oc2cc(OC)c(OC)c(OC)c2)C(CO)O1 (stereo not given)     inactive
2  CCCCC#CC1C=CC(Oc2ccc(OC)cc2)C(CO)O1 (stereo not given)       active
3  CCCCCCCC#Cc1ccccc1C(NC(=O)OC)C(C(=O)OC)C(=O)OC (stereo not given)       active
4  COC(=O)C/C=C\[C@@H](C)[C@@H](/C=N\O[C@@H](C)c1cc(-c2c(C)cc(C)cc2C)no1)NS(=O)(=O)c1ccc(C)cc1       active

For `CCCNC(=O)OC[C@@H]1O[C@H](CCO/N=C2\c3cc(OC)ccc3O[C@H](c3cccc(OC)c3)[C@H]2O)C=C[C@@H]1Oc1ccc(OC)cc1` , what call appears in the results of this test?
active

For CC(O)CCCCCCC/C=C/C=C/C(N)=O (stereo not given) , what call appears in the results of this test?
inactive

For C=CCOC(=O)C(C(C)=O)C(NC(=O)OC)c1cccs1 (stereo not given) , what call appears in the results of this test?
active

For CC#CCOCC/C=C1/c2ccccc2C(OC)C1C (stereo not given) , what call appears in the results of this test?
active

For CC(C)CN1CCc2nc(-c3ccccc3)c3c(c2CC1)COC(C)C3 (stereo not given) , what call appears in the results of this test?
inactive

For COC(=O)NC(c1cccc(C)c1)[C@]1(C(C)=O)CCCC1=O (stereo not given in full) , what call appears in the results of this test?
inactive

For COC(=O)C(C(=O)OC)C1O[C@@]23COCCC2(C)C3c2ccccc21 (stereo not given in full) , what call appears in the results of this test?
inactive

For CC(=O)OCC1OC(C#CCCCc2ccccc2)C=CC1OC(C)=O (stereo not given) , what call appears in the results of this test?
inactive

For `C[C@H](CO)NC(=O)[C@H](C)[C@H]1C[C@]1(C)[C@H](NC(=O)OCc1ccccc1)c1ccccc1` , what call appears in the results of this test?
active

For COC(=O)C1=C(C)N(Cc2ccccc2)[C@]23O[C@](C(=O)OC)(C(=O)N2C1c1ccccc1)C1CCOC(=O)C13 (stereo not given in full) , what call appears in the results of this test?
inactive

For C#CC(C)OC(=O)c1nnc2c3ccccc3n(COC)c2n1 (stereo not given) , what call appears in the results of this test?
inactive
